# Read-out: Plasminogen activator inhibitor-1 (PAI1), SERPINE1 (gene 5054)
# protocol.details: BSK_CASM3C_PAI1: BioMAP Diversity Plus: CASM3C Assay for Plasminogen activator inhibitor-1 (PAI1) Biomarker Activity (AID 2284284);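 note: PAI-1 protein level measured by ELISA 24 h after dosing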
# condition.parameters: primary human coronary artery smooth muscle cells
Active and inactive are the calls of the source. Rule for the calls: active = hit-call score of the fitted dose curve at least 0.9, where 1 is the maximum; inactive = score below 0.9.
measure.name: outcome

// known answers, use as guide
structure_string=c1ccc(OCCOc2ccccc2)cc1 measure_name=outcome measured=inactive
structure_string=CC(C)CCCC(C)(C)O measure_name=outcome measured=inactive
structure_string=CCn1cc(C(=O)O)c(=O)c2ccc(C)nc21 measure_name=outcome measured=inactive
structure_string=O=C(O)C(F)(F)C(F)(F)C(F)(F)C(F)(F)C(F)(F)C(F)(F)C(F)(F)C(F)F measure_name=outcome measured=inactive
structure_string=CCCCN(CCO)CCO measure_name=outcome measured=inactive

Turning to the following molecule.
I am curious: what outcome value has been reported for C=C(C)C(=O)OCCC(F)(F)C(F)(F)C(F)(F)C(F)(F)C(F)(F)C(F)(F)C(F)(F)C(F)(F)F ?
inactive

Provenance of the data: PubChem BioAssay (EPA / NIEHS)
